Reported values of pIC50 for individual entries
Tested on: SW872;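 note: growth inhibition of SW872 cells, read out by a viability assay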
Experiment: cells
Type: functional, cell-based, Homo sapiens
Settings: Homo sapiens, SW872
Description: SANGER: Inhibition of human SW872 cell growth in a cell viability assay.
pIC50: −log10 of the molar value.

Input: Find the recorded pIC50 belonging to CC(=O)O[C@@]12CO[C@@H]1C[C@H](O)[C@@]1(C)C(=O)[C@H](O)C3=C(C)[C@@H](OC(=O)[C@H](O)[C@@H](NC(=O)OC(C)(C)C)c4ccccc4)C[C@@](O)([C@@H](OC(=O)c4ccccc4)[C@H]21)C3(C)C [DOCETAXEL] and report it.
Output: < 8.00

Input: Find the recorded pIC50 belonging to CN(c1ncccc1CNc1nc(Nc2ccc3c(c2)CC(=O)N3)ncc1C(F)(F)F)S(C)(=O)=O [PF-00562271] and report it.
Output: < 5.59

###

System: TGBC1TKB;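 note: growth inhibition of TGBC1TKB cells, read out by a cell viability assay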
Assay: cells
Format: functional, cell-based, Homo sapiens
Settings: Homo sapiens, TGBC1TKB
Description: SANGER: Inhibition of human TGBC1TKB cell growth in a cell viability assay.
pIC50: −log10 of the molar value.
Reported values of pIC50 for individual entries

# example entries with known answers
Input: Find the recorded pIC50 belonging to O=C(NOCC1CC1)c1ccc(F)c(F)c1Nc1ccc(I)cc1Cl [CI-1040] and report it.
Output: 5.10

Input: Find the recorded pIC50 belonging to C=CCc1cccc(/C=N/NC(=O)CN2CCN(Cc3ccccc3)CC2)c1O [PAC-1] and report it.
Output: < 5.59

Input: Find the recorded pIC50 belonging to COc1cc(F)c(F)c(Nc2ccc(I)cc2F)c1NS(=O)(=O)C1(CC(O)CO)CC1 (stereo unspecified) and report it.
Output: < 5.30

Input: Find the recorded pIC50 belonging to "CC(=O)O[C@@H]1[C@@H](OC(C)=O)[C@@H](O)[C@H](Oc2c(-c3ccc(O)cc3)oc3cc(O)cc(O)c3c2=O)O[C@H]1C" and report it.
Output: < 5.00

Input: Find the recorded pIC50 belonging to Cc1cnc(-c2cnc(NCCNc3ccc(C#N)cn3)nc2-c2ccc(Cl)cc2Cl)[nH]1 [LADUVIGLUSIB] and report it.
Output: < 5.59

Could you now consider this next compound?
Input: Find the recorded pIC50 belonging to Cn1cc(C2=C(c3ccc(Cl)cc3Cl)C(=O)NC2=O)c2ccccc21 [SB-216763] and report it.
Output: < 5.00

###

Test system: NCI-H1092;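 note: cell growth inhibition measured with a cell viability assay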
Assay: cells
Assay type: functional, cell-based
Details: Homo sapiens
Description: SANGER: Inhibition of human NCI-H1092 cell growth in a cell viability assay.
pIC50: −log10 of the molar value.
Reported values of pIC50 for individual entries

# example entries with known answers
Input: Find the recorded pIC50 belonging to "O=c1cc(-c2cccc3c2Sc2ccccc2S3)oc(N2CCOCC2)c1" and report it.
Output: < 5.00

Input: Find the recorded pIC50 belonging to "Cc1cc(Nc2cc(N3CCN(C)CC3)nc(Sc3ccc(NC(=O)C4CC4)cc3)n2)n[nH]1" and report it.
Output: < 5.70

Input: Find the recorded pIC50 belonging to "C[C@]1(O)C[C@@H](c2nc(-c3ccc4ccc(-c5ccccc5)nc4c3)c3c(N)nccn32)C1" and report it.
Output: < 5.59

Input: Find the recorded pIC50 belonging to "CCC(=O)N1CCN(c2ccc(-n3c(=O)ccc4cnc5ccc(-c6cnc7ccccc7c6)cc5c43)cc2C(F)(F)F)CC1" and report it.
Output: < 5.92

Input: Find the recorded pIC50 belonging to "CN1CCN(CCOc2cc(OC3CCOCC3)c3c(Nc4c(Cl)ccc5c4OCO5)ncnc3c2)CC1" and report it.
Output: < 5.70

Input: Find the recorded pIC50 belonging to "Cc1cnc(-c2cnc(NCCNc3ccc(C#N)cn3)nc2-c2ccc(Cl)cc2Cl)[nH]1" and report it.
Output: < 5.59

Input: Find the recorded pIC50 belonging to "C=CCNC1=C2C[C@@H](C)C[C@H](OC)[C@H](O)[C@@H](C)/C=C(\C)[C@H](OC(N)=O)[C@@H](OC)/C=C\C=C(/C)C(=O)NC(=CC1=O)C2=O" and report it.
Output: < 6.00

Input: Find the recorded pIC50 belonging to "Cn1cc(C2=C(c3ccc(Cl)cc3Cl)C(=O)NC2=O)c2ccccc21" and report it.
Output: < 5.00

Could you now consider this next compound?
Input: Find the recorded pIC50 belonging to "COc1ccc(-c2ccc3c(N4CCOC[C@@H]4C)nc(N4CCOC[C@@H]4C)nc3n2)cc1CO" and report it.
Output: 5.95

###

System: 697
Assay: cells
Format: functional, cell-based
Conditions: Homo sapiens
Description: SANGER: Inhibition of human 697 cell growth in a cell viability assay.
pIC50: −log10 of the molar value.
Classify as follows. Reported pIC50 greater than or equal to 6: 1. Reported pIC50 below: -1.

Worked cases, answers included:
Input: Kindly determine if pIC50 recorded for "CCC(=O)N1CCN(c2ccc(-n3c(=O)ccc4cnc5ccc(-c6cnc7ccccc7c6)cc5c43)cc2C(F)(F)F)CC1" is above or exactly 6.
Output: 1

Input: Kindly determine if pIC50 recorded for "C[C@]1(O)C[C@@H](c2nc(-c3ccc4ccc(-c5ccccc5)nc4c3)c3c(N)nccn32)C1" is above or exactly 6.
Output: -1

Others:
Input: Kindly determine if pIC50 recorded for "CS(=O)(=O)CCNCc1ccc(-c2ccc3ncnc(Nc4ccc(OCc5cccc(F)c5)c(Cl)c4)c3c2)o1" is above or exactly 6.
Output: -1

Input: Kindly determine if pIC50 recorded for "Cc1cnc(-c2cnc(NCCNc3ccc(C#N)cn3)nc2-c2ccc(Cl)cc2Cl)[nH]1" is above or exactly 6.
Output: -1

###

Reported values of pIC50 for individual entries
System: JEG-3;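 note: growth inhibition of human JEG-3 cells, read out with a cell viability assay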
Assay: cells
Assay type: functional, cell-based, Homo sapiens
Settings: Homo sapiens, JEG-3
Description: SANGER: Inhibition of human JEG-3 cell growth in a cell viability assay.
pIC50: −log10 of the molar value.

# example entries with known answers
Input: Find the recorded pIC50 belonging to "O=c1cc(-c2cccc3c2Sc2ccccc2S3)oc(N2CCOCC2)c1" and report it.
Output: < 5.00

Input: Find the recorded pIC50 belonging to "CN(C)C/C=C/C(=O)Nc1cc2c(Nc3ccc(F)c(Cl)c3)ncnc2cc1O[C@H]1CCOC1" and report it.
Output: < 6.30

Input: Find the recorded pIC50 belonging to "C=CCNC1=C2C[C@@H](C)C[C@H](OC)[C@H](O)[C@@H](C)/C=C(\C)[C@H](OC(N)=O)[C@@H](OC)/C=C\C=C(/C)C(=O)NC(=CC1=O)C2=O" and report it.
Output: 6.73

Input: Find the recorded pIC50 belonging to "C[C@]1(O)C[C@@H](c2nc(-c3ccc4ccc(-c5ccccc5)nc4c3)c3c(N)nccn32)C1" and report it.
Output: < 5.59

Input: Find the recorded pIC50 belonging to "O=C(NOCC1CC1)c1ccc(F)c(F)c1Nc1ccc(I)cc1Cl" and report it.
Output: < 5.00

Others:
Input: Find the recorded pIC50 belonging to COc1cc([C@@H]2c3cc4c(cc3[C@@H](O[C@@H]3O[C@@H]5CO[C@@H](C)O[C@H]5[C@H](O)[C@H]3O)[C@H]3COC(=O)[C@H]23)OCO4)cc(OC)c1O [ETOPOSIDE] and report it.
Output: 5.52

Input: Find the recorded pIC50 belonging to "Cc1cnc(-c2cnc(NCCNc3ccc(C#N)cn3)nc2-c2ccc(Cl)cc2Cl)[nH]1" and report it.
Output: < 5.59

Input: Find the recorded pIC50 belonging to "O=C(c1cc(Cc2n[nH]c(=O)c3ccccc23)ccc1F)N1CCN(C(=O)C2CC2)CC1" and report it.
Output: < 5.30

Input: Find the recorded pIC50 belonging to "Cn1cc(C2=C(c3ccc(Cl)cc3Cl)C(=O)NC2=O)c2ccccc21" and report it.
Output: < 5.00

###

System: SNU-C1
Assay: cells
Assay type: functional, cell-based
Conditions: Homo sapiens
Description: SANGER: Inhibition of human SNU-C1 cell growth in a cell viability assay.
assay metric: IC50

# example entries with known answers
Input: Find the recorded IC50 belonging to "CC1=C2C[C@H]3[C@@H](CC=C4C[C@@H](O)CC[C@@]43C)[C@@H]2CC[C@]12O[C@@H]1C[C@H](C)CN[C@H]1[C@H]2C" and report it.
Output: > 16000 nM

Input: Find the recorded IC50 belonging to "CCC(=O)N1CCN(c2ccc(-n3c(=O)ccc4cnc5ccc(-c6cnc7ccccc7c6)cc5c43)cc2C(F)(F)F)CC1" and report it.
Output: 382 nM

Input: Find the recorded IC50 belonging to "CCC1=C[C@@H]2CN(C1)Cc1c([nH]c3ccccc13)[C@@](C(=O)OC)(c1cc3c(cc1OC)N(C)[C@H]1[C@@](O)(C(=O)OC)[C@H](OC(C)=O)[C@]4(CC)C=CCN5CC[C@]31[C@@H]54)C2" and report it.
Output: > 64 nM

Input: Find the recorded IC50 belonging to "Cc1cc(Nc2cc(N3CCN(C)CC3)nc(Sc3ccc(NC(=O)C4CC4)cc3)n2)n[nH]1" and report it.
Output: > 2000 nM

Input: Find the recorded IC50 belonging to "C=CCc1cccc(/C=N/NC(=O)CN2CCN(Cc3ccccc3)CC2)c1O" and report it.
Output: > 2560 nM

Input: Find the recorded IC50 belonging to "CCc1nc(N)nc(N)c1-c1ccc(Cl)cc1" and report it.
Output: > 20000 nM

Others:
Input: Find the recorded IC50 belonging to "Cc1cnc(-c2cnc(NCCNc3ccc(C#N)cn3)nc2-c2ccc(Cl)cc2Cl)[nH]1" and report it.
Output: > 2560 nM

Input: Find the recorded IC50 belonging to "CN(c1ncccc1CNc1nc(Nc2ccc3c(c2)CC(=O)N3)ncc1C(F)(F)F)S(C)(=O)=O" and report it.
Output: > 2560 nM

Input: Find the recorded IC50 belonging to O=C(/C=C/c1ccccc1)NC(NC(=S)Nc1cccc2cccnc12)C(Cl)(Cl)Cl (centres undefined) and report it.
Output: > 16000 nM
